These measurements were taken from patent US20100303727A1.

- experimental-conditions: human, plasma
Bridge positions count the residues as written; N and C are the ends. Peptide text beside a SMILES is read from it. * marks the point of attachment. X1 = C[N+]1=C(/C=C/C=C/C=C2/N(CCCCCC(=O)*)c3ccccc3C2(C)C)C(C)(C)c2cc(S(=O)(=O)[O-])ccc21; X2 = NC(=O)COCC(=O)NCCOCCOCCOCCN*

[
  {
    "compound": "CC1(CCCCS(=O)(=O)[O-])C(/C=C/C=C/C=C2\\N(CCCCS(=O)(=O)O)c3c(F)c(F)c(F)c(F)c3C2(C)CCCCS(=O)(=O)O)=[N+](CCCCCC(=O)NCCCC[C@@H]2NC(=O)CSC[C@@H](C(=O)NCCOCCOCCOCCNC(=O)COCC(N)=O)NC(=O)[C@H](Cc3ccccc3)NC(=O)[C@@H]3CSSC[C@H](NC2=O)C(=O)N[C@@H](CCCNC(=N)N)C(=O)NCC(=O)N[C@@H](CC(=O)O)C(=O)N3)c2c(F)c(F)c(F)c(F)c21 (stereo partly shown)",
    "PPB (ranking in words)": "highest PPB"
  },
  {
    "compound": "CC1(CCCCS(=O)(=O)O)C(/C=C/C=C/C=C2/N(CCCCCC(=O)NCCCC[C@@H]3NC(=O)CSC[C@@H](C(=O)NCCOCCOCCOCCNC(=O)COCC(N)=O)NC(=O)[C@H](Cc4ccccc4)NC(=O)[C@@H]4CSSC[C@H](NC3=O)C(=O)N[C@@H](CCCNC(=N)N)C(=O)NCC(=O)N[C@@H](CC(=O)O)C(=O)N4)c3ccc(S(=O)(=O)O)cc3C2(C)C)=[N+](CCCCS(=O)(=O)O)c2ccc(S(=O)(=O)O)cc21 (stereo partly shown) [Compound 4, RGD-Cy5** Dye Conjugate]",
    "PPB (ranking in words)": "lowest"
  },
  {
    "compound": "C[N+]1=C(/C=C/C=C/C=C2/N(CCCCCC(=O)NCCCC[C@@H]3NC(=O)CSC[C@@H](C(=O)NCCOCCOCCOCCNC(=O)COCC(N)=O)NC(=O)[C@H](Cc4ccccc4)NC(=O)[C@@H]4CSSC[C@H](NC3=O)C(=O)N[C@@H](CCCNC(=N)N)C(=O)NCC(=O)N[C@@H](CC(=O)O)C(=O)N4)c3ccccc3C2(C)C)C(C)(C)c2cc(S(=O)(=O)[O-])ccc21 [Compound 3, RGD-Cy5(1)) Dye Conjugate] ({CH2CO}-K(X1)CRGDCFC-X2; disulfide 2-6; thioether N-8)",
    "PPB (ranking in words)": "highest PPB"
  },
  {
    "compound": "CC1(C)C(/C=C/C=C/C=C2/N(CCCS(=O)(=O)O)c3ccc(S(=O)(=O)O)cc3C2(C)CCCCCC(=O)NCCCC[C@@H]2NC(=O)CSC[C@@H](C(=O)NCCOCCOCCOCCNC(=O)COCC(N)=O)NC(=O)[C@H](Cc3ccccc3)NC(=O)[C@@H]3CSSC[C@H](NC2=O)C(=O)N[C@@H](CCCNC(=N)N)C(=O)NCC(=O)N[C@@H](CC(=O)O)C(=O)N3)=[N+](CCCS(=O)(=O)O)c2ccc(S(=O)(=O)O)cc21 (stereo partly shown) [Compound 6, RGD-Alexa 647 Dye Conjugate]",
    "PPB (ranking in words)": "lowest"
  }
]
